PROCEDURE TEXT: Oral bioavailability in mouse at 2 mg/kg
Format: ADME, organism-based
TEST PARAMETERS: in vivo
READOUT: bioavailability (%)
Field: numeric (%). Do not append units.

Query :: Can you share its bioavailability? I mean this compound: Fc1ccc(-c2c[nH]c([C@H]3Cc4c([nH]c5ccccc45)[C@@H](C4CCOCC4)N3)n2)cc1
Result :: 82

---

TESTED TARGET: Somatostatin receptor type 4 (Homo sapiens, UniProt P31391)
Sequence (P31391 whole entry): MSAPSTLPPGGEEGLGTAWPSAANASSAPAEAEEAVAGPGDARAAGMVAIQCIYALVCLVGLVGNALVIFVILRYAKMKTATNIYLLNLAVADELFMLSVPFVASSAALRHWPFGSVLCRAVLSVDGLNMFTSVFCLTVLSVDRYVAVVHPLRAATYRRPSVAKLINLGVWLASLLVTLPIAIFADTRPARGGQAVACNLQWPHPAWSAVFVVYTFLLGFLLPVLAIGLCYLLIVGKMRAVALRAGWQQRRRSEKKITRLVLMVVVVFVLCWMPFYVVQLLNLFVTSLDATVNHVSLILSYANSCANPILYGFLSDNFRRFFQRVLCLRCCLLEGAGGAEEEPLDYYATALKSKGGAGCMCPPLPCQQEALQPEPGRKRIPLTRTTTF
READOUT: IC50 (µM)
Express it in µM; write the number only.

Query :: Lab request: please report IC50 under test system Somatostatin receptor type 4 (Homo sapiens, UniProt P31391) for Cc1nc([C@]2(c3cnn(C)c3)N[C@@H](c3nc(-c4ccc(F)cn4)c[nH]3)Cc3c2[nH]c2ccccc32)no1
Result :: 3.2
